Non-standard residues stand in square brackets, D forms with d. Residues, ends and D or L forms follow the SMILES beside them. Dab = NCC[C@H](N)C(=O)O
Consider compounds characterized by their Average MIC with P. aeruginosa.

CC[C@H](C)[C@@H]1NC(=O)[C@H](Cc2c[nH]c3ccccc23)NC(=O)[C@H]([C@@H](C)O)NC(=O)[C@@H]2CCCN2C(=O)[C@H]2CCCN2C(=O)[C@H](CCN)NC(=O)[C@@H]2CCCN2C(=O)[C@H](CCN)NC(=O)[C@H](CCN)NC(=O)[C@H](Cc2c[nH]c3ccccc23)NC(=O)[C@H](CCN)NC(=O)[C@H](CCN)NC(=O)[C@H](CCCCN)NC(=O)[C@H](CCN)NC1=O [Example 17] (cyclo(TWI[Dab]K[Dab][Dab]W[Dab][Dab]P[Dab][dP]P)): >1 µg/mL

We now examine a further compound.
Memo: CC[C@H](C)[C@@H]1NC(=O)[C@H](Cc2c[nH]c3ccccc23)NC(=O)[C@H]([C@@H](C)O)NC(=O)[C@@H]2CCCN2C(=O)[C@H]2CCCN2C(=O)[C@H](CCN)NC(=O)CNC(=O)[C@H](CCN)NC(=O)[C@H](CCN)NC(=O)[C@H](Cc2c[nH]c3ccccc23)NC(=O)[C@H](CCN)NC(=O)[C@H](CCN)NC(=O)[C@H](CCCCN)NC(=O)[C@H](CCN)NC1=O [Example 2] (cyclo(TWI[Dab]K[Dab][Dab]W[Dab][Dab]G[Dab][dP]P)) , reported Average MIC: 0.15 µg/mL

---

Tested on: P. aeruginosa ATCC 27853
Type: cell-based, Pseudomonas aeruginosa
Test Settings: ATCC 27853
Non-standard residues stand in square brackets, D forms with d. Residues, ends and D or L forms follow the SMILES beside them. Nle = CCCC[C@H](N)C(=O)O; Dab = NCC[C@H](N)C(=O)O; Abu = CC[C@H](N)C(=O)O
Parameter Measured: MIC P. aeruginosa ATCC 27853 (µg/mL)
Write it as a number; the unit µg/mL goes unstated.

CCCC[C@@H]1NC(=O)[C@H](CCN)NC(=O)[C@H](CCN)NC(=O)[C@H](Cc2c[nH]c3ccccc23)NC(=O)[C@H](CCN)NC(=O)[C@H](CCN)NC(=O)[C@H](CCCCN)NC(=O)[C@H](CCN)NC(=O)[C@H]([C@@H](C)CC)NC(=O)[C@H](Cc2c[nH]c3ccccc23)NC(=O)[C@H]([C@@H](C)O)NC(=O)[C@@H]2CCCN2C(=O)[C@H]2CCCN2C(=O)[C@H](CCN)NC1=O [Example 9] (cyclo(TWI[Dab]K[Dab][Dab]W[Dab][Dab][Nle][Dab][dP]P)): 0.21

MIC P. aeruginosa ATCC 27853 value, target or system P. aeruginosa ATCC 27853, for CC[C@@H]1NC(=O)[C@H](CCN)NC(=O)[C@H](CCN)NC(=O)[C@H](Cc2c[nH]c3ccccc23)NC(=O)[C@H](CCN)NC(=O)[C@H](CCN)NC(=O)[C@H](CCCCN)NC(=O)[C@H](CCN)NC(=O)[C@H]([C@@H](C)CC)NC(=O)[C@H](Cc2c[nH]c3ccccc23)NC(=O)[C@H]([C@@H](C)O)NC(=O)[C@@H]2CCCN2C(=O)[C@H]2CCCN2C(=O)[C@H](CCN)NC1=O [Example 6] (cyclo(TWI[Dab]K[Dab][Dab]W[Dab][Dab][Abu][Dab][dP]P)) : 0.05

---

# Cytotoxicity GI50 Hela cells annotations
Test system: HELA cells (Acc57)
Test: Cytotoxicity assay, MTT reduction (LC 50, GI 50)
Type: cell-based
Non-standard residues stand in square brackets, D forms with d. Residues, ends and D or L forms follow the SMILES beside them. Tle = CC(C)(C)[C@H](N)C(=O)O; dDab = NCC[C@@H](N)C(=O)O; Orn = NCCC[C@H](N)C(=O)O; Dab = NCC[C@H](N)C(=O)O
Answer format: numeric, µM implied, no suffix.

Consider the reported Cytotoxicity GI50 Hela cells for these molecules:
CC[C@H](C)[C@@H]1NC(=O)[C@H](Cc2c[nH]c3ccccc23)NC(=O)[C@H](CCC(=O)O)NC(=O)[C@@H]2CCCN2C(=O)[C@H]2CCCN2C(=O)[C@H](CCN)NC(=O)[C@H](C)NC(=O)[C@H](CCN)NC(=O)[C@H](CCN)NC(=O)[C@H](Cc2c[nH]c3ccccc23)NC(=O)[C@H](CCN)NC(=O)[C@@H](CCN)NC(=O)[C@H](CCCN)NC(=O)[C@H](CCN)NC1=O [Example 47] (cyclo(EWI[Dab][Orn][dDab][Dab]W[Dab][Dab]A[Dab][dP]P)): 50
CC[C@H](C)[C@@H]1NC(=O)[C@H](Cc2c[nH]c3ccccc23)NC(=O)[C@H]([C@@H](C)O)NC(=O)[C@@H]2CCCN2C(=O)[C@H]2CCCN2C(=O)[C@H](CCN)NC(=O)[C@H](C)NC(=O)[C@H](CCN)NC(=O)[C@H](CCN)NC(=O)[C@H](Cc2c[nH]c3ccccc23)NC(=O)[C@H](CCC(N)=O)NC(=O)[C@H](CCN)NC(=O)[C@H](CCCCN)NC(=O)[C@H](CCN)NC1=O [Example 39] (cyclo(TWI[Dab]K[Dab]QW[Dab][Dab]A[Dab][dP]P)): 50
CC[C@H](C)[C@@H]1NC(=O)[C@H](Cc2c[nH]c3ccccc23)NC(=O)[C@H]([C@@H](C)O)NC(=O)[C@@H]2CCCN2C(=O)[C@H]2CCCN2C(=O)[C@H](CCN)NC(=O)[C@H](C(C)(C)C)NC(=O)[C@H](CCN)NC(=O)[C@H](CCN)NC(=O)[C@H](Cc2c[nH]c3ccccc23)NC(=O)[C@H](CCN)NC(=O)[C@H](CCN)NC(=O)[C@H](CCCCN)NC(=O)[C@H](CCN)NC1=O [Example 36] (cyclo(TWI[Dab]K[Dab][Dab]W[Dab][Dab][Tle][Dab][dP]P)): 50
CC[C@H](C)[C@@H]1NC(=O)[C@H](Cc2c[nH]c3ccccc23)NC(=O)[C@H]([C@@H](C)O)NC(=O)[C@@H]2CCCN2C(=O)[C@H]2CCCN2C(=O)[C@H](CCN)NC(=O)[C@H](CCC(=O)O)NC(=O)[C@H](CCN)NC(=O)[C@H](CCN)NC(=O)[C@H](Cc2c[nH]c3ccccc23)NC(=O)[C@H](CCN)NC(=O)[C@H](CCN)NC(=O)[C@H](CCCCN)NC(=O)[C@H](CCN)NC1=O [Example 15] (cyclo(TWI[Dab]K[Dab][Dab]W[Dab][Dab]E[Dab][dP]P)): 50

Please turn your attention to the following entry.
The molecule CC[C@H](C)[C@@H]1NC(=O)[C@H](Cc2c[nH]c3ccccc23)NC(=O)[C@H]([C@@H](C)O)NC(=O)[C@@H]2CCCN2C(=O)[C@H]2CCCN2C(=O)[C@H](CCN)NC(=O)[C@H](C)NC(=O)[C@H](CCN)NC(=O)[C@H](CCN)NC(=O)[C@H](Cc2c[nH]c3ccccc23)NC(=O)[C@H](CCN)NC(=O)[C@@H](CCN)NC(=O)[C@H](CCCN)NC(=O)[C@H](CCN)NC1=O [Example 48] (cyclo(TWI[Dab][Orn][dDab][Dab]W[Dab][Dab]A[Dab][dP]P)) showed Cytotoxicity GI50 Hela cells equal to 50

---

Test system: Pseudomonas aeruginosa P1021903
Format: cell-based
Test Settings: P1021903
Non-standard residues stand in square brackets, D forms with d. Residues, ends and D or L forms follow the SMILES beside them. Ala(cPr) = N[C@@H](CC1CC1)C(=O)O; Cha = N[C@@H](CC1CCCCC1)C(=O)O; Tle = CC(C)(C)[C@H](N)C(=O)O; dDab = NCC[C@@H](N)C(=O)O; Dab = NCC[C@H](N)C(=O)O; Aib = CC(C)(N)C(=O)O
Parameter Measured: MIC P. aeruginosa P1021903 (µg/mL)
Provide only the numeric value, understood in µg/mL.

Sample answers from the record:
CC[C@H](C)[C@@H]1NC(=O)[C@H](Cc2c[nH]c3ccccc23)NC(=O)[C@H]([C@@H](C)O)NC(=O)[C@@H]2CCCN2C(=O)[C@H]2CCCN2C(=O)[C@H](CCN)NC(=O)[C@H](C(C)(C)C)NC(=O)[C@H](CCN)NC(=O)[C@H](CCN)NC(=O)[C@H](Cc2c[nH]c3ccccc23)NC(=O)[C@H](CCN)NC(=O)[C@H](CCN)NC(=O)[C@H](CCCCN)NC(=O)[C@H](CCN)NC1=O [Example 36] (cyclo(TWI[Dab]K[Dab][Dab]W[Dab][Dab][Tle][Dab][dP]P)): 0.18
CC[C@H](C)[C@@H]1NC(=O)[C@H](Cc2c[nH]c3ccccc23)NC(=O)[C@H]([C@@H](C)O)NC(=O)[C@@H]2CCCN2C(=O)[C@H]2CCCN2C(=O)[C@H](CCN)NC(=O)[C@H](C)NC(=O)[C@H](CCN)NC(=O)[C@H](CCN)NC(=O)[C@H](Cc2c[nH]c3ccccc23)NC(=O)[C@H](CCN)NC(=O)[C@@H](CCN)NC(=O)[C@H](CCCCN)NC(=O)[C@H](CCN)NC1=O [Example 41] (cyclo(TWI[Dab]K[dDab][Dab]W[Dab][Dab]A[Dab][dP]P)): 0.03
C[C@@H]1NC(=O)[C@H](CCN)NC(=O)[C@H](CCN)NC(=O)[C@H](Cc2c[nH]c3ccccc23)NC(=O)[C@H](CCN)NC(=O)[C@H](CCN)NC(=O)[C@H](CCCCN)NC(=O)[C@H](CCN)NC(=O)[C@H](CC2CCCCC2)NC(=O)[C@H](Cc2c[nH]c3ccccc23)NC(=O)[C@H]([C@@H](C)O)NC(=O)[C@@H]2CCCN2C(=O)[C@H]2CCCN2C(=O)[C@H](CCN)NC1=O [Example 34] (cyclo(TW[Cha][Dab]K[Dab][Dab]W[Dab][Dab]A[Dab][dP]P)): 0.29
CC[C@H](C)[C@@H]1NC(=O)[C@H](Cc2c[nH]c3ccccc23)NC(=O)[C@H]([C@@H](C)O)NC(=O)[C@@H]2CCCN2C(=O)[C@H]2CCCN2C(=O)[C@H](CCN)NC(=O)[C@@H]2CCCN2C(=O)[C@H](CCN)NC(=O)[C@H](CCN)NC(=O)[C@H](Cc2c[nH]c3ccccc23)NC(=O)[C@H](CCN)NC(=O)[C@H](CCN)NC(=O)[C@H](CCCCN)NC(=O)[C@H](CCN)NC1=O [Example 17] (cyclo(TWI[Dab]K[Dab][Dab]W[Dab][Dab]P[Dab][dP]P)): 2.00
CC[C@H](C)[C@@H]1NC(=O)[C@H](Cc2c[nH]c3ccccc23)NC(=O)[C@H](C)NC(=O)[C@@H]2CCCN2C(=O)[C@H]2CCCN2C(=O)[C@H](CCN)NC(=O)[C@H](C)NC(=O)[C@H](CCN)NC(=O)[C@H](CCN)NC(=O)[C@H](Cc2c[nH]c3ccccc23)NC(=O)[C@H](CCN)NC(=O)[C@H](CCN)NC(=O)[C@H](CCCCN)NC(=O)[C@H](CCN)NC1=O [Example 22] (cyclo(AWI[Dab]K[Dab][Dab]W[Dab][Dab]A[Dab][dP]P)): 0.09

Recorded MIC P. aeruginosa P1021903 (molecule CC[C@H](C)[C@@H]1NC(=O)[C@H](Cc2c[nH]c3ccccc23)NC(=O)[C@H]([C@@H](C)O)NC(=O)[C@@H]2CCCN2C(=O)[C@H]2CCCN2C(=O)[C@H](CCN)NC(=O)CNC(=O)[C@H](CCN)NC(=O)[C@H](CCN)NC(=O)[C@H](Cc2c[nH]c3ccccc23)NC(=O)[C@H](CCN)NC(=O)[C@H](CCN)NC(=O)[C@H](CCCCN)NC(=O)[C@H](CCN)NC1=O [Example 2] (cyclo(TWI[Dab]K[Dab][Dab]W[Dab][Dab]G[Dab][dP]P)) ): 0.16

The recorded MIC P. aeruginosa P1021903 for CC[C@H](C)[C@@H]1NC(=O)[C@H](Cc2c[nH]c3ccccc23)NC(=O)[C@H]([C@@H](C)O)NC(=O)[C@@H]2CCCN2C(=O)[C@H]2CCCN2C(=O)[C@H](CCN)NC(=O)C(C)(C)NC(=O)[C@H](CCN)NC(=O)[C@H](CCN)NC(=O)[C@H](Cc2c[nH]c3ccccc23)NC(=O)[C@H](CCN)NC(=O)[C@H](CCN)NC(=O)[C@H](CCCCN)NC(=O)[C@H](CCN)NC1=O [Example 5] (cyclo(TWI[Dab]K[Dab][Dab]W[Dab][Dab][Aib][Dab][dP]P)) is 0.21

Reported MIC P. aeruginosa P1021903 ( CC[C@H](C)[C@@H]1NC(=O)[C@H](Cc2c[nH]c3ccccc23)NC(=O)[C@H]([C@@H](C)O)NC(=O)[C@@H]2CCCN2C(=O)[C@H]2CCCN2C(=O)[C@H](CCN)NC(=O)[C@@H](C)NC(=O)[C@H](CCN)NC(=O)[C@H](CCN)NC(=O)[C@H](Cc2c[nH]c3ccccc23)NC(=O)[C@H](CCN)NC(=O)[C@H](CCN)NC(=O)[C@H](CCCCN)NC(=O)[C@H](CCN)NC1=O [Example 3] (cyclo(TWI[Dab]K[Dab][Dab]W[Dab][Dab][dA][Dab][dP]P)) ) = 0.30

So for CC[C@H](C)[C@@H]1NC(=O)[C@H](Cc2c[nH]c3ccccc23)NC(=O)[C@H]([C@@H](C)O)NC(=O)[C@@H]2CCCN2C(=O)[C@H]2CCCN2C(=O)[C@H](CCN)NC(=O)[C@H](CC2CC2)NC(=O)[C@H](CCN)NC(=O)[C@H](CCN)NC(=O)[C@H](Cc2c[nH]c3ccccc23)NC(=O)[C@H](CCN)NC(=O)[C@H](CCN)NC(=O)[C@H](CCCCN)NC(=O)[C@H](CCN)NC1=O [Example 37] (cyclo(TWI[Dab]K[Dab][Dab]W[Dab][Dab][Ala(cPr)][Dab][dP]P)) , the logged MIC P. aeruginosa P1021903 turned out to be 0.31

All values here come from patent US9521846B2.
